Tgt: His-tagged human BCMA (ACRO Biosystems, Cat. #: BCA-H522y) (human)
Sequence (Q02223 1-54): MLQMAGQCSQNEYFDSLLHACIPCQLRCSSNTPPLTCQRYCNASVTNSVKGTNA
Assay explanation: SPR (BIAcore T200) affinity ranking; crude sdAb captured via tag, antigen at 100 nM
Property: Kd (nM)

[I] anti-BCMA sdAb BCMA8 (VHH, part only, affinity tag) VHH: QVQLVESGGGSVQAGGSLRLSCAASGGTRSWNYMAWFRQAPGKEREDVAIIDNVGSTRYADSVKGRFTISQDTAQNTLYLQMNSLKPEDTAMYYCAARVSWCEDPPCGFDYWGQGTQVTVSS
[II] anti-BCMA sdAb BCMA12 (VHH, part only, affinity tag) VHH: QVHLVESGGGSVQAGGSLRLSCKSSGATYSSNCMAWFRQTPGKEREGVATIDLASHGTYYADSVKGRFTISRDNAKNTMYLQMSGLRPEDTALYYCAATSWWPCTTFNGGYASWGQGTQVTVSS
**Q:** Consider entries I and II . Which has the numerically lower Kd? Give the chosen item's label as your response.
**A:** II
(II: 23 nM, I: 48 nM)

Origin of values: patent US20220265709A1
